Hey, just so you know, these numbers are from the nanobody polyreactivity screen of Harvey et al. (2022).

# procedure.summary: yeast display, Sf9 membrane polyspecificity reagent, FACS + sequencing; frameworks hold sequencing errors
measurement.type: polyreactivity (PSR sort gate)

Example entries begin here.
| chain.sequence | measurement.type | experimental.value |
| --- | --- | --- |
| QVQLVESGGGLVQAGGSLRLSCAASVIIFNRYAMGRYRQAPGKERELVAAISGTGASTYYADSVKGRFTISRDNAKNTVYLQMNSLKPEDTAVYYCNARKRYKSGYWGQGTQVTVSS | polyreactivity (PSR sort gate) | high polyreactivity |
| QVQLVESGGGLVQAGGSLRLSCAASGRTFYGYAMGWYRQAPGKERELVAAISKRGGSTYYADSVKGRFTISRDNAKNTVYLQMNSLKPEDTAVYYCARPYLGPYSGYDYNYWGQGTQVTVSS | polyreactivity (PSR sort gate) | high polyreactivity |
| QVQLVESGGGLVQAGGSLRLSCAASGITFSSNTRGCYRQATGNETELVAAISSSGGSTYYADSVKGRFTISRDNAKNTFYLQINSLKPEDTAVYYCNTVRFRGWVWWEYDYWGQGTQVTVSS | polyreactivity (PSR sort gate) | high polyreactivity |
| QVQLVESGGGVVQAGGSLRLSCAASGITLAWYAMGWSRQAPGKERELVAAINSGGSTYYADSVKGRFTISRDTAKNTVYLQMNSLKPEDTAVYYCNTDDDSSSTGYYSWGQGTQVTVSS | polyreactivity (PSR sort gate) | low polyreactivity |
| QVQLVESGGGLVQAGGSLRLSCAASGRTFWVYAMGWYRQAPGKERELVAAIRRGGITNYADSVKGRFTISRDNAKNTVYLQMNSLKPEDTAVYYCATDNYGYLTRYYYWGQGTQVTVSS | polyreactivity (PSR sort gate) | low polyreactivity |
| QVQLVEKGGGLVQAGGSLRLICAASGYIIWPNAMGWYRQAPGKERELVASITRAGSTNYADSVKGRFTISRDNAKNTVYLQMNSLKPEDTAVYYSAAYFWGGYNYWGQGTQVTVSS | polyreactivity (PSR sort gate) | low polyreactivity |
| QVQLVESGGGLVQAGGSLRLSCAASGFTFARYAMGWYRQAPGKERELVAAISRGTTTYYADSVKGRFTISRDNAKNTVYLQMNSLKPEDTAVYYCAARAVSEYFVVPFYYWGQGTQVTVSS | polyreactivity (PSR sort gate) | high polyreactivity |
| QDQLVESGGGLVQAGGSLRLSCAASVIIFEYYTMGWYRQAPGKERELVASITYDGDSTYYADSVKRRFTISRDNAKKTVYLQMNSQTPEDTAFYSCAADYYYVYSSYGHYYWGQGTQVTVSS | polyreactivity (PSR sort gate) | low polyreactivity |

q: Using the record for QVQLVESGGGLVQAGGSLRLSCAASGSIFSSYAMGWYRQAPGKERELVAAISTAGSTNYADSVKGRFTISRDNAKNTVYLQINSLKPEDTAVYYCAADSGDQQSYGLDLNHDFDYWGQGSQVTVSS , state its measured polyreactivity (PSR sort gate).
a: low polyreactivity

q: Using the record for QVQLVESGGGLVQAGGSLRLSCAASGSTFAYYVMGWYRQAPGKERELVAAISRGGRTYYADSVKGSFTISRDNAKNTVYLQMNSLKPEDTSVYYCNKVYVVYSRSKGFYYTYLKYEYWGQGTQVTVSS , state its measured polyreactivity (PSR sort gate).
a: low polyreactivity

q: Using the record for QVQLVESGGGLVQAGGSLRLSCAASGSTFVKNTMGWYRQAPGKERELVAAIRSSGGSTYYADSVKGRFTISRDNAKNTVYLQMNSLKPEDTAVYYCAAGRGPEGTDDSWGQGTQVTVSS , state its measured polyreactivity (PSR sort gate).
a: high polyreactivity
